assay: DNA2-59-1 third efficacy study: dissipation rate and half-life in pond water (HPLC); type: physicochemical; conditions: third study, 0.3 μM applied, 72 hours
parameter_measured: DNA2-59-1 Levels in Pond Water

Lab note: CC(C)NCc1ccc2c(c1)C(=O)c1ccccc1C2=O gave DNA2-59-1 Levels in Pond Water of 2.2 µg/L

----------
Exercise: for every item that follows, state its recorded MIC.
system: Oscillatoria perornata; experiment: Rapid bioassay screening for selective algicides (LOEC, LCIC); assay type: cell-based; conditions: Planktothrix perornata; rapid screening; read-out: LCIC (lowest-complete-inhibition concentration), Oscillatoria perornata

Lab note: COCCOc1cccc2c1C(=O)c1ccccc1C2=O gave MIC of 10 µM

Lab note: O=C1c2ccccc2C(=O)c2c(O)ccc(O)c21 [1,4-dihydroxyanthraquinone, reference compound] gave MIC of > 100 µM

Lab note: O=C1c2ccccc2C(=O)c2c(OCCOCCOCCO)cccc21 gave MIC of 10 µM

Lab note: COCCOCCOCCOCCOc1ccc2c(c1)C(=O)c1ccccc1C2=O gave MIC of 100 µM

Lab note: COCCOCCOc1cccc2c1C(=O)c1ccccc1C2=O gave MIC of 100 µM

Lab note: Nc1ccc2c(c1)C(=O)c1ccccc1C2=O [2-aminoanthraquinone, reference compound] gave MIC of > 100 µM

Lab note: COCCOCCOCCOc1ccc2c(c1)C(=O)c1ccccc1C2=O gave MIC of 10 µM

Lab note: O=C1c2ccccc2C(=O)c2cc(OCCOCCOCCO)ccc21 gave MIC of 10 µM

Lab note: COCCOCCOCCOCCOc1cccc2c1C(=O)c1ccccc1C2=O gave MIC of 100 µM

Lab note: Nc1cccc2c1C(=O)c1ccccc1C2=O [1-aminoanthraquinone, reference compound] gave MIC of 100 µM

Lab note: CC(C)NCc1ccc2c(c1)C(=O)c1ccccc1C2=O gave MIC of 0.1 µM

Lab note: O=C1c2ccccc2C(=O)c2cc(OCCOCCOCCOCCOCCO)ccc21 gave MIC of 100 µM

Lab note: COCCOc1ccc2c(c1)C(=O)c1ccccc1C2=O gave MIC of 10 µM

Lab note: COCCOCCOc1ccc2c(c1)C(=O)c1ccccc1C2=O gave MIC of 10 µM

Lab note: O=C1c2ccccc2C(=O)c2c(OCCOCCOCCOCCOCCO)cccc21 gave MIC of 10 µM

Lab note: COCCOCCOCCOc1cccc2c1C(=O)c1ccccc1C2=O gave MIC of 10 µM

Lab note: O=C1c2cccc(S(=O)(=O)O)c2C(=O)c2cccc(S(=O)(=O)O)c21 [anthraquinone-1,5-disulfonic acid, reference compound] gave MIC of > 1000 µM

Lab note: O=C1c2cccc(O)c2C(=O)c2c(O)cccc21 [1,8-dihydroxyanthraquinone, reference compound] gave MIC of 100 µM

Just for reference, patent US6949250B2 is where these values come from.
